Reference source: the supplement of paper PMC9112550

We begin with a simple list: items and their reported shrunken log2 fold change.
- Tested on: Escherichia coli TOP10;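 also: peptides expressed intracellularly from a pBAD plasmid library in pooled LB shake-flask culture, induced with 0.3% L-arabinose, DNA abundance read by NGS, three biological replicates, DESeq2 with apeglm shrinkage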
- Method Description: shrunken log2 fold change of peptide-encoding DNA abundance (4.5 h post-induction vs induction); higher = less antimicrobial activity (less host growth inhibition)
- Test Conditions: time post-induction: 4.5 h; library: site-saturation at positions 5, 18, 19, 20

Examples with their reported shrunken log2 fold change follow.
Lookup: Answer with reported shrunken log2 fold change of RRIRDRPPRLPRPRPRPGYWPRP
Found: 0.242

Lookup: Answer with reported shrunken log2 fold change of RRIRGRPPRLPRPRPRPSGRPRP
Found: 0.522

Lookup: Answer with reported shrunken log2 fold change of RRIRQRPPRLPRPRPRPTWQPRP
Found: 0.186

Lookup: Answer with reported shrunken log2 fold change of RRIRCRPPRLPRPRPRPLQIPRP
Found: -0.213

Lookup: Answer with reported shrunken log2 fold change of RRIRIRPPRLPRPRPRPLFWPRP
Found: -0.145

New cases:
Lookup: Answer with reported shrunken log2 fold change of RRIRRRPPRLPRPRPRPSTGPRP
Found: 0.112

Lookup: Answer with reported shrunken log2 fold change of RRIRSRPPRLPRPRPRPMGWPRP
Found: 0.358

Lookup: Answer with reported shrunken log2 fold change of RRIRDRPPRLPRPRPRPNYTPRP
Found: -0.771

Lookup: Answer with reported shrunken log2 fold change of RRIRDRPPRLPRPRPRPEYRPRP
Found: -0.0165

Lookup: Answer with reported shrunken log2 fold change of RRIRHRPPRLPRPRPRPIKCPRP
Found: -0.87

Lookup: Answer with reported shrunken log2 fold change of RRIRRRPPRLPRPRPRPFNLPRP
Found: -0.109

Lookup: Answer with reported shrunken log2 fold change of RRIRPRPPRLPRPRPRPQIMPRP
Found: -0.265

Lookup: Answer with reported shrunken log2 fold change of RRIRFRPPRLPRPRPRPSALPRP
Found: 0.0201

Lookup: Answer with reported shrunken log2 fold change of RRIRQRPPRLPRPRPRPIHAPRP
Found: -0.0062
